Listed here: items and their measured Kd.
Target sequence: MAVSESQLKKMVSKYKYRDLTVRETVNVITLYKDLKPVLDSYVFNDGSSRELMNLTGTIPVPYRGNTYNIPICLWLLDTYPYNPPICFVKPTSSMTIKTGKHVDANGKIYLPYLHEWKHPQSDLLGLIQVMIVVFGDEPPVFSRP
Non-standard residues stand in square brackets, D forms with d. Residues, ends and D or L forms follow the SMILES beside them. pT = C[C@@H](OP(=O)(O)O)[C@H](N)C(=O)O
Quick reminder: number only, in µM, skip the unit.

Worked cases, Kd given:
# molecule, readout-units, reported-value
measured = [
    ("CSCC[C@H](NC(=O)[C@@H]1CCCN1C(=O)[C@H](CO)NC(=O)[C@H](CC(C)C)NC(=O)[C@@H]1CCCN1C(=O)[C@H](C)NC(=O)[C@@H](NC(=O)[C@@H]1CCCN1C(=O)[C@H](CO)NC(=O)[C@H](CO)NC(=O)[C@H](C)NC(=O)CNC(=O)[C@H](CC(N)=O)NC(=O)[C@H](Cc1ccc(O)cc1)NC(C)=O)[C@@H](C)O)C(=O)N[C@@H](CO)C(=O)N1CCC[C@H]1C(N)=O [GJA1_269–283 wt] (Ac-YNGASSPTAPLSPMSP-NH2)", "µM", 232),
    ("CC(=O)N[C@@H](Cc1c[nH]cn1)C(=O)N[C@@H](CO)C(=O)NCC(=O)N[C@@H](CC(N)=O)C(=O)N[C@H](C(=O)N[C@H](C(=O)N1CCC[C@H]1C(=O)N[C@H](C(=O)N[C@@H](C)C(=O)N1CCC[C@H]1C(=O)N1CCC[C@H]1C(=O)N[C@@H](Cc1ccc(O)cc1)C(=O)N[C@@H](CC(C)C)C(=O)N[C@@H](CCC(N)=O)C(=O)N[C@@H](CCC(=O)O)C(=O)N[C@@H](CO)C(N)=O)[C@@H](C)O)[C@@H](C)OP(=O)(O)O)C(C)C [PIP4P2_17–32 pS] (Ac-HSGNV[pT]PTAPPYLQES-NH2)", "µM", 16),
    ("CC(=O)N[C@@H](Cc1c[nH]cn1)C(=O)N[C@@H](CO)C(=O)NCC(=O)N[C@@H](CC(N)=O)C(=O)N[C@H](C(=O)N[C@@H](CCC(=O)O)C(=O)N1CCC[C@H]1C(=O)N[C@H](C(=O)N[C@@H](C)C(=O)N1CCC[C@H]1C(=O)N1CCC[C@H]1C(=O)N[C@@H](Cc1ccc(O)cc1)C(=O)N[C@@H](CC(C)C)C(=O)N[C@@H](CCC(N)=O)C(=O)N[C@@H](CCC(=O)O)C(=O)N[C@@H](CO)C(N)=O)[C@@H](C)O)C(C)C [PIP4P2_17–32 E] (Ac-HSGNVEPTAPPYLQES-NH2)", "µM", 18),
    ("CC[C@H](C)[C@H](NC(=O)[C@H](CO)NC(=O)[C@H](CCC(N)=O)NC(C)=O)C(=O)N[C@@H](C)C(=O)N[C@@H](CCCNC(=N)N)C(=O)N[C@@H](CCC(=O)O)C(=O)N1CCC[C@H]1C(=O)N[C@@H](CO)C(=O)N[C@@H](C)C(=O)N1CCC[C@H]1C(=O)N[C@@H](CO)C(=O)N[C@H](C(=O)N1CCC[C@H]1C(=O)N[C@H](C(=O)N1CCC[C@H]1C(=O)N[C@@H](Cc1ccc(O)cc1)C(N)=O)[C@@H](C)O)[C@@H](C)CC [PDCD6IP711–725 wt] (Ac-QSIAREPSAPSIPTPY-NH2)", "µM", 16),
    ("CC(=O)N[C@@H](Cc1c[nH]cn1)C(=O)N[C@@H](CO)C(=O)NCC(=O)N[C@@H](CC(N)=O)C(=O)N[C@H](C(=O)N[C@H](C(=O)N1CCC[C@H]1C(=O)N[C@H](C(=O)N[C@@H](C)C(=O)N1CCC[C@H]1C(=O)N1CCC[C@H]1C(=O)N[C@@H](Cc1ccc(O)cc1)C(=O)N[C@@H](CC(C)C)C(=O)N[C@@H](CCC(N)=O)C(=O)N[C@@H](CCC(=O)O)C(=O)N[C@@H](CO)C(N)=O)[C@@H](C)O)[C@@H](C)O)C(C)C [PIP4P2_17–32 wt] (Ac-HSGNVTPTAPPYLQES-NH2)", "µM", 14),
]

[Q] Name the recorded Kd for CSCC[C@H](NC(=O)[C@@H]1CCCN1C(=O)[C@H](CCC(=O)O)NC(=O)[C@H](CC(C)C)NC(=O)[C@@H]1CCCN1C(=O)[C@H](C)NC(=O)[C@@H](NC(=O)[C@@H]1CCCN1C(=O)[C@H](CO)NC(=O)[C@H](CO)NC(=O)[C@H](C)NC(=O)CNC(=O)[C@H](CC(N)=O)NC(=O)[C@H](Cc1ccc(O)cc1)NC(C)=O)[C@@H](C)O)C(=O)N[C@@H](CO)C(=O)N1CCC[C@H]1C(N)=O [GJA1_269–283 E] (Ac-YNGASSPTAPLEPMSP-NH2) .
[A] 115

Provenance of the data: paper PMC10333884
